assay: Cytotoxicity against human L02 cells assessed as inhibition of cell growth incubated for 48 hrs by MTT assay; assay type: toxicity, cell-based
Listed here are compounds together with their documented IC50 at 48 h.

Use the examples below as a reference point.
COc1ccc(C(=O)n2nc(N)cc2-c2ccc(Cl)cc2)cc1OC | 4.66 µM
COc1ccc(-c2cc(N)nn2C(=O)c2cc(OC)c(OC)c(OC)c2)cc1 | > 10 µM
COc1cc(C(=O)n2nc(N)cc2-c2cccc(Cl)c2)cc(OC)c1OC | 1.64 µM
COc1ccc(C(=O)n2nc(N)cc2-c2cccc(Cl)c2)cc1OC | > 10 µM

stdin: Which value of IC50 at 48 h has been reported for COc1cccc(-c2cc(N)nn2C(=O)c2ccc(OC)c(OC)c2)c1 in the records?
stdout: 2.61 µM

stdin: Which value of IC50 at 48 h has been reported for CC(=O)O[C@H]1C(=O)[C@@]2(C)[C@H]([C@H](OC(=O)c3ccccc3)[C@]3(O)C[C@H](OC(=O)[C@H](O)[C@@H](NC(=O)c4ccccc4)c4ccccc4)C(C)=C1C3(C)C)[C@]1(OC(C)=O)CO[C@@H]1C[C@@H]2O [PACLITAXEL] in the records?
stdout: 1.73 µM

stdin: Which value of IC50 at 48 h has been reported for COc1cc(C(=O)n2nc(N)cc2-c2ccc(F)cc2)cc(OC)c1OC in the records?
stdout: 6.24 µM

stdin: Which value of IC50 at 48 h has been reported for COc1ccc(C(=O)n2nc(N)cc2-c2ccc(Br)cc2)cc1OC in the records?
stdout: 1.12 µM

stdin: Which value of IC50 at 48 h has been reported for COc1ccc(-c2cc(N)nn2C(=O)c2cc(OC)c(OC)c(OC)c2)cc1OC in the records?
stdout: 4.1 µM

stdin: Which value of IC50 at 48 h has been reported for COc1cc(C(=O)n2nc(N)cc2-c2cccc(C)c2)cc(OC)c1OC in the records?
stdout: 2.81 µM

stdin: Which value of IC50 at 48 h has been reported for COc1ccc(C(=O)n2nc(N)cc2-c2ccc(F)cc2)cc1OC in the records?
stdout: > 10 µM

stdin: Which value of IC50 at 48 h has been reported for COc1cccc(-c2cc(N)nn2C(=O)c2ccc3c(c2)OCO3)c1 in the records?
stdout: > 10 µM

stdin: Which value of IC50 at 48 h has been reported for COc1ccc(C(=O)n2nc(N)cc2-c2ccc(C)cc2)cc1OC in the records?
stdout: 5.58 µM

stdin: Which value of IC50 at 48 h has been reported for Cc1ccc(-c2cc(N)nn2C(=O)c2ccc3c(c2)OCO3)cc1 in the records?
stdout: 3.9 µM

stdin: Which value of IC50 at 48 h has been reported for COc1cc(C(=O)n2nc(N)cc2-c2cccc(F)c2)cc(OC)c1OC in the records?
stdout: 4.17 µM
